Assay: Solubility
Type: physicochemical
Settings: about pH 4 to about pH 10; read-out: solubility
Property label: solubility

The molecule listed as CC1CN(c2cc3c(cc2F)c(=O)c(C(=O)O)cn3-c2ccc(F)cc2F)CCN1 (stereo not shown) [temafloxacin] has a reported solubility of < 500 µg/mL
